Provide the reported TGI of each item.
tested on: HOP-92 NSCLC; test: NCI tumour cell line growth inhibition, 48 h

The cases that follow already have their TGI on record.
c1ccc(C(C2=Nc3cccc4cccc(c34)N2)c2ccccc2)cc1 : 44 µM
NS(=O)(=O)c1ccccc1C(=O)N/N=C(\c1nc2ccc([N+](=O)[O-])cc2[nH]c1=O)C(O)c1ccc([N+](=O)[O-])cc1 (configuration not stated) : > 100 µM
O=C(Nc1ccccc1)OCCN=C1c2ccccc2C(Br)C(Br)c2ccccc21 (configuration not stated) : 16.1 µM
CN(CC(=O)O)S(=O)(=O)c1ccc2ccccc2c1 : > 100 µM

For every record below, what is its TGI?
1. COC1(c2ccc(Cl)cc2)SC=C(C)n2c1noc2=O (configuration not stated)
2. C=C(C)[C@@H]1CCC2=C[C@@H](OC2=O)[C@@H](C(=C)C)C2=CC(C(=O)O)=C(C1)O2
3. CC1=C(C(=O)OCCO[N+](=O)[O-])C(c2cccc([N+](=O)[O-])c2)C(C(=O)OC(C)C)=C(C)N1 (configuration not stated)
4. CCCCS(=O)(=O)CCC(N)P(=O)(O)O (configuration not stated)
5. Cc1cc(=O)[nH]c(NNC(C#N)c2cccc(O)c2)n1 (configuration not stated)
6. O=C(O)C(Cc1ccccc1)N1C(=O)N/C(=C\c2ccc(F)cc2)C1=O (configuration not stated)

Solution:
["> 100 µM", "> 100 µM", "25.5 µM", "> 100 µM", "> 100 µM", "> 100 µM"]

For every record below, what is its TGI?
1. O=C1OCN(c2ccccc2)C12CCN(Cc1ccccc1)CC2
2. NC(CCc1nc(-c2ccc(Cl)cc2)cs1)C(=O)O (configuration not stated)

Solution:
> 100 µM
> 100 µM

For every record below, what is its TGI?
1. COC(=O)NC(Nc1ccccn1)(C(F)(F)F)C(F)(F)F
2. NC1CCC(Nc2nc(NCc3ccc(-c4ccco4)nc3)c3ncn(C4CCCC4)c3n2)CC1 (configuration not stated)

Solution:
1: > 100 µM; 2: 0.0803 µM

For every record below, what is its TGI?
1. C=CCC1(O)CC(n2cc(C)c(=O)[nH]c2=O)OC1CO[Si](C)(C)C(C)(C)C (configuration not stated)
2. O=C1c2ccccc2C(=O)c2sc(Nc3cccc(Cl)c3)nc21
3. CC(=O)OC1COC(n2c(=S)n(-c3ccc(C)cc3)c(=O)c3ccccc32)C(OC(C)=O)C1OC(C)=O (configuration not stated)
4. Cc1nnc2n1N=C(c1ccccc1)/C(=C/c1ccc(-c3ccc(Cl)cc3)o1)S2
5. CSc1ccc(/C=C2\CN(C)C/C(=C\c3ccc(SC)cc3)C2=O)cc1
6. CC(C)=CCCc1c(C)ccc2c1C(=O)C(=O)C(C(C)C)=C2
7. COc1cc2nc(-c3ccc(C(F)(F)F)cc3)cc(OCCCN3CCC(O)CC3)c2cc1OC

Solution:
1: > 100 µM; 2: 9.1 µM; 3: > 100 µM; 4: 32.6 µM; 5: > 100 µM; 6: 6.43 µM; 7: 9.64 µM

Problem: Entry Nc1ccccc1-c1noc(=O)[nH]1 : reported TGI = ?
Solution: > 100 µM

----------
system: NCI-H460 lung
Hello, when you answer, please use one of the following outcomes: active, inactive

Here's what some known entries look like.
C=C(CNCCO)[C@@H]1CC[C@]2(CO)CC[C@]3(C)[C@H](CC[C@@H]4[C@@]5(C)CCC(N)C(C)(C)[C@@H]5CC[C@]43C)[C@@H]12 (some centres undefined) : inactive
COc1cc(/C=C/c2cc(/C=C/c3ccc(O)c(OC)c3)n(C(=O)Nc3ccc(F)cc3)n2)ccc1O : inactive
C=C1C(=O)[C@@]23CC[C@H]4[C@@](C)(CCC[C@@]4(C)C(=O)OC)[C@@H]2CC[C@]1(O)C3 : inactive
COC(=O)Nc1nc2ccc(S(=O)c3ccccc3)cc2[nH]1 (centres undefined) : inactive
Clc1cccc(Cc2cn3cc(-c4ccccc4)nc3s2)c1Cl : inactive

Problem: Per the assay record, what outcome was assigned to O=C(CN1CCN(c2cc3c(cc2F)c(=O)c(C(=O)N/N=C/c2ccccc2O)cn3C2CC2)CC1)N/N=C\c1ccccc1O ?
Solution: active

Problem: Entry to check: NC(CSC(c1ccccc1)(c1ccccc1)c1ccc2c(c1)OCO2)C(=O)O (centres undefined)
Solution: active

Problem: Entry to check: O=C(NCCNc1nccc(-c2c(-c3cccc(O)c3)nc3sccn23)n1)c1ccccc1O
Solution: inactive

Problem: Entry to check: O=C(CCl)N1c2ccccc2Oc2ccc3ccccc3c21
Solution: inactive

----------
Provide the reported GI50 of each item.
tested on: EKVX NSCLC; assay: NCI tumour cell line growth inhibition, 48 h

COc1ccc2c(c1)C(=O)/C(=C/c1ccc(OCC(=O)Nc3nccs3)cc1)O2 : 2040 nM
COc1cc(C(=O)/C=C/c2sc(Cl)nc2Cl)cc(OC)c1OC : 1670 nM

For every record below, what is its GI50?
1. O=C(CN1CCN(c2cc3c(cc2F)c(=O)c(C(=O)N/N=C/c2ccccc2O)cn3C2CC2)CC1)N/N=C\c1ccccc1O
2. CCCCCCCCSC1=CC(=O)c2nc3ccccc3c3ccnc1c23
3. O=C1NNC(=O)c2ccccc2SSc2ccccc2C(=O)NNC(=O)c2ccccc2SSc2ccccc21

Solution:
1: 1110 nM; 2: > 100000 nM; 3: 10500 nM

For every record below, what is its GI50?
1. Cn1ccnc1C(=O)/C=C/c1ccc(CC(=O)Nc2ccc(Br)cc2)cc1
2. O=C(Nc1ccc(I)cc1)c1cc([N+](=O)[O-])ccc1O
3. CCc1ccc2c(c1)C(=O)c1c-2n(CCCBr)c(=O)c2cc([N+](=O)[O-])ccc12
4. CCOc1ccccc1-n1c(CN2CCN(C(=O)COc3ccc(CNCCCCCCN4C5CCCC4CC(OC(=O)Nc4cc(C)ccc4OC)C5)cc3)CC2)nc2ccccc2c1=O (stereo unspecified)
5. CCCCCCCC(=O)SCC/C=C/[C@@H]1CC(=O)NCc2cccc(n2)C2=N[C@@](C)(CS2)C(=O)N[C@@H](C(C)C)C(=O)N1
6. CSc1ccccc1C#C/C=C\C#Cc1ccccc1N1CCCC1=O

Solution:
2760 nM
6720 nM
> 50000 nM
1670 nM
1750 nM
> 10300 nM

----------
Provide the reported TGI of each item.
tested on: U251 CNS; assay: NCI tumour cell line growth inhibition, 48 h

The cases that follow already have their TGI on record.
COc1cc2nc(-c3ccc(C(F)(F)F)cc3)cc(OCCCN3CCC(O)CC3)c2cc1OC : 20.6 µM
Nc1ccc(C(=O)N/C(=C\c2ccc3c(c2)OCO3)c2nc3[nH]c(=S)[nH]c(=O)c3[nH]2)cc1 : > 100 µM
CN(C)CCCN1c2ccc([N+](=O)[O-])cc2CCc2cccc([N+](=O)[O-])c21 : 29.3 µM
COC(=O)c1ccc2[nH]c(O)c(C(=Nc3ccc(N(C)C(=O)CN4CCN(C)CC4)cc3)c3ccc(C)cc3)c2c1 : 2 µM
CCOc1ccccc1-n1c(CN2CCN(C(=O)COc3ccc(CNCCCCCCN4C5CCCC4CC(OC(=O)Nc4cc(C)ccc4OC)C5)cc3)CC2)nc2ccccc2c1=O (stereo not given) : 1.2 µM
CC1=C(C(=O)Nc2ccccc2C)C(c2ccco2)C(C(=O)Nc2ccccc2C)=C(C)N1C : > 100 µM
COC(=O)[C@@H](C)C[C@H](Cc1ccc(F)cc1)NC(=O)c1csc([C@@H](C[C@H](C(C)C)N(C)C(=O)[C@@H](NC(=O)[C@H]2CCCCN2C)C(C)C)OC(C)=O)n1 : > 16.7 µM
NC1CC(=O)c2cscc21 (stereo not given) : > 100 µM
Cc1ccc(S(=O)(=O)NC(=O)NC(CC(N)=O)C(=O)O)cc1 (stereo not given) : > 100 µM
C[C@@H](CS(C)(=O)=O)Nc1ncc2cc(Oc3ccc(F)cc3F)c(=O)n(C)c2n1 : > 25 µM

For every record below, what is its TGI?
1. O=C1C2=C(SCCS2)C(=O)c2ccccc21
2. O=C(Nc1ccc(F)cc1F)c1cc(I)ccc1O
3. O=C1N(Cl)C(=O)C(c2ccc(Cl)cc2)(c2ccc(Cl)cc2)N1Cl
4. CNC(=O)c1ccccc1Nc1nc(Nc2ccc(N3CCOCC3)cc2OC)ncc1Cl
5. CC1CN1P1(N2CC2C)=NP(N2CC2C)(N2CC2C)=NP(N2CC2C)(N2CC2C)=N1 (stereo not given)
6. CC(=O)OC(C)C(=O)C1c2cccc(O)c2C(=O)c2c(O)cc(C)cc21 (stereo not given)

Solution:
1. 3.02 µM
2. > 100 µM
3. > 100 µM
4. > 47.8 µM
5. > 50 µM
6. 1.11 µM

For every record below, what is its TGI?
1. O=C(Nc1ccccc1)OCCN=C1c2ccccc2C(Br)C(Br)c2ccccc21 (stereo not given)
2. C1=CC2(C=CC13O[C@H](C1CCCCC1)[C@@H](C1CCCCC1)O3)O[C@H](C1CCCCC1)[C@@H](C1CCCCC1)O2
3. C=CCc1cc(OC)c2c(c1)C(O)CC(c1ccc(OC)c(OC)c1)O2 (stereo not given)

Solution:
["16.5 µM", "> 50 µM", "> 100 µM"]

For every record below, what is its TGI?
1. CC1(C)OC(=O)C(=Cc2ccc(O)cc2)C(=O)O1
2. C=CC[C@H]1O[Si](C(C)(C)C)(C(C)(C)C)[C@H](C)[C@H]1C
3. Nc1ncc(Br)c(NCC2(CO)CCC2)n1
4. O=C(CSC(=S)N1CCCCC1)Nc1nc2c(s1)CCCC2
5. CC(=O)OC1COC(n2c(=S)n(-c3ccc(C)cc3)c(=O)c3ccccc32)C(OC(C)=O)C1OC(C)=O (stereo not given)
6. O=[N+]([O-])C(=C(Cl)Cl)C(Cl)=C(Cl)Cl

Solution:
1. > 100 µM
2. > 100 µM
3. > 100 µM
4. > 100 µM
5. > 100 µM
6. 7.26 µM

// data source = PubChem BioAssay (NCI)
